From: PubChem BioAssay (NCATS)

test: qHTS assay for small molecule activators of the p53 signaling pathway (AID 651743); conditions: HCT-116 p53RE-bla, beta-lactamase FRET ratio, 16 h; stronger effect = higher value; note: % of control where 0% means no effect
Results filed as inconclusive are left out.
Recorded measurements of activation, one per entry
Entry rule: numbers only, all in %.

Please review the following examples before continuing.
| Compound | activation, % |
| --- | --- |
| O=C(O)c1cc(Cl)ccc1Cl | -4.12 |
| Oc1cccc(Cl)c1Cl | 0.548 |
| CC(C)(COCC1CO1)COCC1CO1 (centres undefined) | 6.6 |

Give the measured activation of CCCCCc1cc(O)cc(O)c1 .
-2.37

Give the measured activation of Nc1ccc(-c2ccccc2)cc1 .
-1.6

Give the measured activation of N#CCCC#N .
-0.196

Give the measured activation of Cc1ccc(N)cc1C .
-1.62

* * *

Recorded measurements of max response, one per entry
assay: qHTS assay for small molecule agonists of the antioxidant response element (ARE) signaling pathway measured by Nrf2-dependant transcriptional activity - cell viability counter screen (AID 720653); details: ARE-bla HepG2 viability, CellTiter-Glo ATP luminescence, 16 h; stronger effect = lower value; note: % is set by controls: 0 for no effect and ±100 for the full control effect
Inconclusive results are not listed.
Entry rule: numbers only, all in %.

| Molecule | max response, % |
| --- | --- |
| C=C(Cl)CSC(=S)N(CC)CC | -13 |

Give the measured max response of CCN(N=O)C(N)=O .
1.02

Give the measured max response of C=CCO .
1.93

Give the measured max response of C=C(Cl)CCl .
19

* * *

experiment: qHTS assay for cell viability of HEK293 cells (AID 743288); settings: ATP luminescence (CellTiter-Glo), 18 h, stronger effect = lower value; note: % is set by controls: 0 for no effect and ±100 for the full control effect; nearly all actives have a fitted effect of over 50% in size
Records with an inconclusive call do not appear.
Endpoint Name: max response (%)
Entry rule: numbers only, all in %.

| Molecule | Endpoint Name | Unit Symbol | Measurement |
| --- | --- | --- | --- |
| O=[N+]([O-])c1ccccc1O | max response | % | 0.38 |

Give the measured max response of O=[N+]([O-])c1cccc2c([N+](=O)[O-])cccc12 .
-6.41

Give the measured max response of COC(=O)c1ccccc1N .
-4.36

Give the measured max response of Cc1ccc(N)cc1Cl .
-1.75

Give the measured max response of BrCCc1ccccc1 .
-1.44

Give the measured max response of CN(C)N=O .
-0.309

* * *

molecular target: Nuclear receptor ROR-gamma (Homo sapiens); test: qHTS assay for small molecule antagonists of the retinoid-related orphan receptor gamma (ROR-gamma) signaling pathway (AID 651802); details: ROR-gamma antagonist cell reporter assay; series mostly up to 92.2 µM; note: nearly all actives have a fitted effect of over 60% in size
Records with an inconclusive call do not appear. Activity calls are given as the source filed them. Calls follow the shape of the dose curve; as a rule, active = well fitted inhibition curve with a large enough effect; inconclusive = small, poorly fitted or top-dose-only effect; inactive = no such curve, though single readings can be large or run the other way.
Outcomes you can answer with include only these: active, inactive

Worked set:
| Structure Smiles String | Assigned Class |
| --- | --- |
| O=C(Cl)OCc1ccccc1 | inactive |
| Nc1ccc([N+](=O)[O-])cc1[N+](=O)[O-] | active |
| ClCCOCCCl | inactive |
| CCCCC#N | inactive |

Next:
GET /call?item= Nc1ccc(-c2ccc(N)cc2)cc1 returns the recorded outcome of this test.
inactive

* * *

target: Muscarinic acetylcholine receptor M1 (Rattus norvegicus); assay: qHTS Assay for Antagonists of Acetylcholine Muscarinic M1 Receptor: Measurement of IP-One Response (AID 944); conditions: CHO-M1 cells, IP-One HTRF, antagonist mode; series mostly up to 46.1 µM; note: nearly all actives have a fitted effect of over 75% in size
Inconclusive results are not listed. The source made the active and inactive calls. The call rests on the fitted dose curve; in most records, active means well fitted inhibition curve with a large enough effect; inconclusive means small, poorly fitted or top-dose-only effect; inactive means no such curve, though single readings can be large or run the other way.
Outcomes you can answer with include only these: Y = active, N = inactive

GET /call?item= CC(=O)c1c(O)c(C)c(O)c(Cc2c(O)c3c(c(C(=O)/C=C\c4ccccc4)c2O)OC(C)(C)C=C3)c1O returns the recorded outcome of this test.
N
